Recorded inhibition at 3.5 µM for the following compounds
# testTarget: Edg-1/S1P1 receptor (Homo sapiens, UniProt P21453)
# Construct: expressed in transfected cells; host or cells: human osteogenic sarcoma U2OS cells: Edg-1 Transfluor U2OS WT Clone #37 (assay I), Edg-1 Transfluor U2OS Clone #3 (assay II)
# Sequence (P21453 whole entry): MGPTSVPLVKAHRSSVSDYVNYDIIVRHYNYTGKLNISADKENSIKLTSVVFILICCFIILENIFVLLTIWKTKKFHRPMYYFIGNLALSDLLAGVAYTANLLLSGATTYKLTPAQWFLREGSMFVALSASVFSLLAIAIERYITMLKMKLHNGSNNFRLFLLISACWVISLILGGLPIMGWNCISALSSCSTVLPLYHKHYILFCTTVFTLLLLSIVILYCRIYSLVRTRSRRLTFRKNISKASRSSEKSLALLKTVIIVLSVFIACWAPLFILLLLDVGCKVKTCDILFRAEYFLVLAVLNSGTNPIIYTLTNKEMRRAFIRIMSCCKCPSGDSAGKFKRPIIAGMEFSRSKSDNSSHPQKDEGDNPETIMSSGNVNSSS
# protocol: In vitro cell based receptor activation assay - Transfluor assay (assay I or II; beta-arrestin GFP relocalization after S1P stimulation)
# studyConditions: at 3.50 μM (titrated from top concentration 10 μM)
Report only the number, with the unit % understood.

Query: Note down inhibition at 3.5 µM recorded for CCn1c([C@@H](C)NS(=O)(=O)c2ccc(C(N)=O)nc2)nc2cnc(C3CC3)cc21 [Example 174]
Reply: 87.8

Query: Note down inhibition at 3.5 µM recorded for CCn1c(C(C)(C)NS(=O)(=O)c2ccc(C#N)nc2)nc2cnc(C(F)(F)F)cc21 [Example 155]
Reply: 78.9

Query: Note down inhibition at 3.5 µM recorded for CCn1c(C(C)NS(=O)(=O)c2ccc(=O)[nH]c2)nc2ccc(C(F)(F)F)cc21 (centres unmarked) [Example 171]
Reply: 73.3

Query: Note down inhibition at 3.5 µM recorded for CCn1c([C@@H](C)NS(=O)(=O)c2ccc(Cl)cc2)nc2cc(F)c(Cl)cc21 [Example 56]
Reply: 96

Query: Note down inhibition at 3.5 µM recorded for CCn1c([C@@H](C)NS(=O)(=O)c2ccc(Cl)cc2)nc2cnc(C(F)(F)F)cc21 [Example 147]
Reply: 95.9

Query: Note down inhibition at 3.5 µM recorded for CCn1c([C@@H](C)NS(=O)(=O)c2ccc(C(N)=O)nc2)nc2ccc(C(F)(F)F)cc21 [Example 106]
Reply: 93.3

Query: Note down inhibition at 3.5 µM recorded for CCn1c([C@@H](C)NS(=O)(=O)c2cccc(F)c2)nc2ccc(C(F)(F)F)cc21 [Example 120]
Reply: 90.9

Query: Note down inhibition at 3.5 µM recorded for CCn1c([C@@H](C)NS(=O)(=O)c2cccn2C)nc2ccc(C(F)(F)F)cc21 [Example 187]
Reply: 86.2

Query: Note down inhibition at 3.5 µM recorded for CCn1c([C@@H](C)NS(=O)(=O)c2ccc(CC#N)cc2)nc2ccc(C(F)(F)F)cc21 [Example 167]
Reply: 86

Query: Note down inhibition at 3.5 µM recorded for CCn1c([C@@H](C)NS(=O)(=O)c2ccc(F)cc2)nc2cnc(OC)cc21 [Example 132]
Reply: 86.2

Query: Note down inhibition at 3.5 µM recorded for CCn1c([C@@H](C)NS(=O)(=O)c2ccc(OC)nc2)nc2ccc(C(F)(F)F)cc21 [Example 109]
Reply: 95.6

Query: Note down inhibition at 3.5 µM recorded for CCC(NS(=O)(=O)c1ccc(Cl)cc1)c1nc2ccccc2n1CC (centres unmarked) [Example 2]
Reply: 94

Query: Note down inhibition at 3.5 µM recorded for CCn1c(C(C)(C)NS(=O)(=O)c2ccc(C#N)cc2)nc2ccc(C(F)(F)F)cc21 [Example 138]
Reply: 78.4

Query: Note down inhibition at 3.5 µM recorded for CCn1c([C@@H](C)NS(=O)(=O)c2ccc(C#N)nc2)nc2ncc(C(F)(F)F)cc21 [Example 181]
Reply: 90.6

Query: Note down inhibition at 3.5 µM recorded for CCn1c([C@@H](C)NS(=O)(=O)c2ccc(F)nc2)nc2ccc(C(F)(F)F)cc21 [Example 107]
Reply: 92.5

Query: Note down inhibition at 3.5 µM recorded for CCn1c([C@H](C)NS(=O)(=O)c2ccc(Cl)cc2)nc2ccc(C(F)(F)F)cc21 [Example 100]
Reply: 84.6

Query: Note down inhibition at 3.5 µM recorded for CCn1c(C(C)NS(=O)(=O)c2ccc(Cl)cc2)nc2c(OC)nccc21 (centres unmarked) [Example 95]
Reply: 47.7

Query: Note down inhibition at 3.5 µM recorded for CCOc1ccc(S(=O)(=O)N[C@H](C)c2nc3ccc(C(F)(F)F)cc3n2CC)cc1 [Example 157]
Reply: 88.4

Query: Note down inhibition at 3.5 µM recorded for CCn1c([C@@H](C)NS(=O)(=O)c2ccc3c(c2)OCO3)nc2ccc(C(F)(F)F)cc21 [Example 45]
Reply: 96

Query: Note down inhibition at 3.5 µM recorded for CCn1c(C(C)NS(=O)(=O)c2ccc(Cl)cc2)nc2ncccc21 (centres unmarked) [Example 12]
Reply: 93.3

Query: Note down inhibition at 3.5 µM recorded for CCn1c([C@@H](C)NS(=O)(=O)c2ccncc2)nc2ccc(C(F)(F)F)cc21 [Example 127]
Reply: 86.4

Query: Note down inhibition at 3.5 µM recorded for CCn1c([C@@H](C)NS(=O)(=O)c2cncc(Cl)c2)nc2ccc(C(F)(F)F)cc21 [Example 129]
Reply: 90.3

This collection of values is drawn from patent US20100029643A1.
